# assay_target: JAK1 (recombinant purified GST-tagged catalytic domain) (Homo sapiens (Human))
# Sequence (P23458 875-1153): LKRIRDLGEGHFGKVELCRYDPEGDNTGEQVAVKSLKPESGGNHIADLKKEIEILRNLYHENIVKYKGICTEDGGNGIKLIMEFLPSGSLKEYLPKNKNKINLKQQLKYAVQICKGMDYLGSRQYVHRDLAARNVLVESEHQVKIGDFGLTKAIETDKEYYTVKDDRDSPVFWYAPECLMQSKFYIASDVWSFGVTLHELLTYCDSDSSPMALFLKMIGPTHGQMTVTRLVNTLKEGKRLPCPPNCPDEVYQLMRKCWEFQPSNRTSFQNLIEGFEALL
# experiment_description: Jak Biochemical HTRF Assay (JAK1)
# measurement_parameters: [ATP] 31.8 μM
pIC50: −log10 of the molar value.
readout_kind: pIC50

- CC(C)(O)[C@@H]1CC[C@@](CC#N)(n2nc(Nc3ccc(Cl)cc3)c3c(=O)[nH]ccc32)CO1 [Example 24]: 9.47
- CC1(C)CCCN1S(=O)(=O)c1ccc(Nc2nn([C@]3(CC#N)CCCOC3)c3cc[nH]c(=O)c23)cc1 [Example 5-107]: 9.70
- CN(C)S(=O)(=O)c1ccc(Nc2nn(C3(CC#N)CCN(C(=O)OC4CCOCC4)CC3)c3cc[nH]c(=O)c23)cc1 [Example 11-7]: 9.74
- N#CC[C@]1(n2nc(Nc3ccc(C(N)C(F)(F)F)cc3)c3c(=O)[nH]ccc32)CCCC[C@H]1F (single isomer, unassigned) [Example 5-176]: 10.30

a = CC(C)(C)OC(=O)N1CCC(CC#N)(n2nc(Nc3ccc(S(=O)(=O)NCC4CC4)c(F)c3)c3c(=O)[nH]ccc32)CC1 [Example 5-296]
b = CC(C)(C)OC(=O)[C@H]1CC[C@](CC#N)(n2nc(Nc3ccc(S(C)(=O)=O)cc3)c3c(=O)[nH]ccc32)CO1 [Example 5-40]
Query block: Decide: a or b , by lowest recorded pIC50. Refer to your chosen item by its label in the answer.
Result block: b

1 = COC(=O)N1CCC(CC#N)(n2nc(Nc3ccc(C#N)cc3)c3c(=O)[nH]ccc32)CC1 [Example 5-145]
2 = CC(C)(C)OC(=O)N1CCC(CC#N)(n2nc(Nc3ccc(S(=O)(=O)N4CCCCC4)cc3)c3c(=O)[nH]ccc32)CC1 [Example 5-293]
Query block: Could you please tell me which of these two has the higher pIC50: 1 or 2 ? Refer to your chosen item by its label in the answer.
Result block: 1
(1: 9.72, 2: 9.37)

A = CC(C)(C)OC(=O)[C@@H]1CC[C@@](CC#N)(n2nc(Nc3ccc(C4(C(F)(F)F)CCCCN4)cc3)c3c(=O)[nH]ccc32)CO1 (single isomer, unassigned) [Example 5-286]
B = CCOC(=O)N1CCC(CC#N)(n2nc(Nc3ccc(S(=O)(=O)N(C)C)cc3)c3c(=O)[nH]ccc32)CC1 [Example 10-5]
Query block: Decide: A or B , by lowest recorded pIC50. Refer to your chosen item by its label in the answer.
Result block: A
(A: 9.62, B: 9.92)

I = Cc1cc(Nc2nn([C@]3(CC#N)CC[C@@H](C(=O)OC(C)(C)C)OC3)c3cc[nH]c(=O)c23)ccc1C(=O)N1CCC(O)(C(F)(F)F)C1 (single isomer, unassigned) [Example 5-161]
II = CC(C)(C)OC(=O)[C@@H]1CC[C@@](CC#N)(n2nc(Nc3ccnc(F)c3)c3c(=O)[nH]ccc32)CO1 [Example 21-6]
Query block: Decide: I or II , by lowest recorded pIC50. Refer to your chosen item by its label in the answer.
Result block: I

Attribution: patent US9957264B2
